tested on: HCT-116; assay: Cytotoxicity against human HCT116 cells after 72 hrs by sulforhodamine B assay; assay type: functional, cell-based; details: HCT-116, 72 h
measured.quantity: IC50 (µM)

COc1ccc2oc3c(O)c4c(c(O)c3c(=O)c2c1O)-c1c(cc(CC(C)=O)c(C(=O)N[C@@](C)(CO)C(=O)O)c1O)CC4
0.9
COc1cc([C@@H]2c3cc4c(cc3[C@@H](O[C@@H]3O[C@@H]5CO[C@@H](C)O[C@H]5[C@H](O)[C@H]3O)[C@H]3COC(=O)[C@H]23)OCO4)cc(OC)c1O [ETOPOSIDE]
1.9

###

system: K562; test: Cytotoxicity against human K562 cells after 72 hrs by sulforhodamine B assay; type: functional, cell-based; conditions: K562, 72 h
pIC50: −log10 of the molar value.
measured.quantity: pIC50

CC(=O)Cc1cc(O)c2c(c1)CCc1c-2cc2c(c1O)C(=O)c1c(O)cc(O)cc1C2=O
4.74
COc1cc([C@@H]2c3cc4c(cc3[C@@H](O[C@@H]3O[C@@H]5CO[C@@H](C)O[C@H]5[C@H](O)[C@H]3O)[C@H]3COC(=O)[C@H]23)OCO4)cc(OC)c1O [ETOPOSIDE]
5.51
